Target: NLuc-hH2R (Homo sapiens, UniProt P25021)
Construct: membrane signal peptide of the murine 5HT3A receptor (N); expressed in transfected cells
Sequence (P25021 whole entry): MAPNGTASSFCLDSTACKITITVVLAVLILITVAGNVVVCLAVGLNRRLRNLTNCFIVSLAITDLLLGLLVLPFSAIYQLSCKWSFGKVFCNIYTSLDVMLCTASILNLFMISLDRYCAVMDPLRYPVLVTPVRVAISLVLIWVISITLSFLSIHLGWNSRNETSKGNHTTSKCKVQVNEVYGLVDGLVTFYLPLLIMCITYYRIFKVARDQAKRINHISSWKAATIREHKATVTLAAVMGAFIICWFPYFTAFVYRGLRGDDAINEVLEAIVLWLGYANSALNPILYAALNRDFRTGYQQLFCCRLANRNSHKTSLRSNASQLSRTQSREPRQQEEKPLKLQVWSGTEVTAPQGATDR
Assay: Real-time NanoBRET kinetic binding experiments
Details: Kd(kin) = koff/kon
Value kind: pKd
Interpret pKd as the negative base-10 log of the concentration measured in mol/L.

The recorded pKd for Cc1cc(/C=C/c2cc3c4c(c2)CCCN4CCC3)cc(C)[n+]1CCCCNc1c(NCCCOc2cccc(CN3CCCCC3)c2)c(=O)c1=O is 8.89

###

Quick list: Ki per entry.
Biological target: hH2R-Gsαs fusion protein (Homo sapiens, UniProt P25021)
Construct: made in house; host or cells: Sf9 insect cells (recombinant baculovirus), membrane preparation
Sequence (P25021+P63092 fused): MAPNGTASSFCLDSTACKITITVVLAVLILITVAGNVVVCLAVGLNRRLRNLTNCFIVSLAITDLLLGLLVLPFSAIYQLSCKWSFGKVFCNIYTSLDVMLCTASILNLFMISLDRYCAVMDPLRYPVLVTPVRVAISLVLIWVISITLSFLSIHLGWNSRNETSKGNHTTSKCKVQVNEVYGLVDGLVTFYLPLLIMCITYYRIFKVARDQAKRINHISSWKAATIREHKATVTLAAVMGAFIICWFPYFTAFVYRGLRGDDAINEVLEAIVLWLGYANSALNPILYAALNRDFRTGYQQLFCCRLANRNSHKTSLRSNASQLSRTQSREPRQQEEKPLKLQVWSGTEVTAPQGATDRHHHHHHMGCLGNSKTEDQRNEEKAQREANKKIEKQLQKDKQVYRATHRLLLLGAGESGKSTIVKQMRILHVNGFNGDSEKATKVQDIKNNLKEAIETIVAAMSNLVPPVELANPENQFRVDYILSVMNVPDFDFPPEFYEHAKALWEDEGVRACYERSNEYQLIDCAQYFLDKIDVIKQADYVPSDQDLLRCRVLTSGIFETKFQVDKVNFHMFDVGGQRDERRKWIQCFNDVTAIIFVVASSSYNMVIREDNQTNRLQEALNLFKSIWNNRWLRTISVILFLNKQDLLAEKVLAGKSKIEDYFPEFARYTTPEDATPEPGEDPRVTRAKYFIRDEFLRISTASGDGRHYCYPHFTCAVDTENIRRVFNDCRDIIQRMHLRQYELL
Assay: Radioligand competition binding with [3H]UR-DE257 on Sf9 membranes
Conditions: read-out: pKi (RL comp. binding Sf9 membranes) (converted)
Reply numerically in nM, unit not repeated.

Before answering, review these 2 worked examples.
O=C(CCCCCNC(=O)COc1ccc(/C=C/C2=[N+]3C(=Cc4ccc(-c5cccs5)n4[B-]3(F)F)C=C2)cc1)NCCCCNc1c(NCCCOc2cccc(CN3CCCCC3)c2)c(=O)c1=O :: 4.47
Cc1nc(N)sc1CCCNC(=N)NCCCCCCCCNC(=N)NCCCc1sc(N)nc1C [Compound 12, reference compound] :: 457

The recorded Ki for Cc1cc(/C=C/c2cc3c4c(c2)CCCN4CCC3)cc(C)[n+]1CCCCNc1c(NCCCOc2cccc(CN3CCCCC3)c2)c(=O)c1=O is 24

The recorded Ki for CCCCCCCCCCCCNC(=N)NCCCc1sc(N)nc1C [Compound 11, reference compound] is 251

The recorded Ki for CN(C)c1ccc2c(-c3ccc(C(=O)NCCCCNc4c(NCCCOc5cccc(CN6CCCCC6)c5)c(=O)c4=O)cc3C(=O)[O-])c3ccc(N(C)C)cc3[o+]c2c1 is 100

Attribution: paper PMC7414126
